Where do these numbers come from? They come from patent US7615356B2.

TARGET_OR_TEST_SYSTEM: endogenous NaV channels of Chinese Hamster Ovary cells (Nav 1.2a) (Cricetulus griseus, UniProt A0A8C2MK62)
ASSAY_INFO: Use-dependent block, repetitive electrical stimulation at 1 Hz, CHO cells
Assay type: cell-based
ASSAY_CONTEXT: read-out: IC50 @ 20th peak
pIC50: −log10 of the molar value.
PROPERTY_NAME: pIC50

{"columns": ["COMPOUND", "RECORDED_RESULT"],
 "data": [
  ["Cc1cccc(C)c1OCC(C)N (centres unmarked) [mexiletine]", 4.65],
  ["CN(C)CCC=C1c2ccccc2CCc2ccccc21 [amitriptyline]", 5.80]
]}

====

Here, each record is paired with measured pIC50 data.
TARGET_OR_TEST_SYSTEM: endogenous NaV channels of Chinese Hamster Ovary cells (Nav 1.2a) (Cricetulus griseus)
ASSAY_INFO: Use-dependent block, repetitive electrical stimulation at 1 Hz, CHO cells
Format: cell-based
ASSAY_CONTEXT: read-out: IC50 @ 20th peak; 1 Hz stimulation, 20th peak response
pIC50: −log10 of the molar value.

{"columns": ["CPD_SMILES", "TARGET_OR_TEST_SYSTEM", "pIC50"],
 "data": [
  ["CCCCNc1ccc(C(=O)OCCN(C)C)cc1", "endogenous NaV channels of Chinese Hamster Ovary cells (Nav 1.2a) (Cricetulus griseus)", 6.48],
  ["CCCCOc1cc(C(=O)NCCN(CC)CC)c2ccccc2n1", "endogenous NaV channels of Chinese Hamster Ovary cells (Nav 1.2a) (Cricetulus griseus)", 6.29]
]}

====

TARGET_OR_TEST_SYSTEM: endogenous NaV channels of Chinese Hamster Ovary cells (Nav 1.2a) (Cricetulus griseus, UniProt A0A8C2MK62)
ASSAY_INFO: Use-dependent block, repetitive electrical stimulation at 1 Hz, CHO cells
Format: cell-based
ASSAY_CONTEXT: read-out: IC50 @ 1st peak
Measured IC50 by item

{"columns": ["MOLECULE", "IC50 [µM]"],
 "data": [
  ["CN(C)CCC=C1c2ccccc2CCc2ccccc21 [amitriptyline]", 5.19],
  ["Cc1cccc(C)c1OCC(C)N (centres unmarked) [mexiletine]", 58.1]
]}

====

System: NaV3 sodium channel
ASSAY_CONTEXT: read-out: EC50 (Hill function fit)
pEC50: −log10 of the molar value.
PROPERTY_NAME: pEC50

{"columns": ["CPD_SMILES", "PROPERTY_NAME", "RECORDED_RESULT"],
 "data": [
  ["NC1=N[C@H](O)[C@H]2[C@H]3O[C@]4(O)O[C@@H]([C@@H](O)[C@@]2(N1)[C@@H]4O)[C@]3(O)CO", "pEC50", 7.60]
]}

====

TARGET_OR_TEST_SYSTEM: endogenous NaV channels of Chinese Hamster Ovary cells (Nav 1.2a) (Cricetulus griseus, UniProt A0A8C2MK62)
ASSAY_INFO: Use-dependent block, repetitive electrical stimulation at 1 Hz, CHO cells
Assay type: cell-based
ASSAY_CONTEXT: 1 Hz stimulation, 20th peak response; read-out: IC50 @ 20th peak

{"columns": ["CPD_SMILES", "U", "IC50"],
 "data": [
  ["COC(=O)[C@@H]1[C@H]2C[C@H]3c4[nH]c5ccccc5c4CCN3C[C@@H]2CC[C@@H]1O", "µM", 4.7]
]}

====

Form: system (UniProt:Q9Y5Y9), quantity (IC50), values below.
PROPERTY_NAME: IC50

{"columns": ["CPD_SMILES", "TARGET_OR_TEST_SYSTEM", "PROPERTY_NAME", "RECORDED_RESULT"],
 "data": [
  ["CCCCNc1ccc(C(=O)OCCN(C)C)cc1", "UniProt:Q9Y5Y9", "IC50", "~4 µM"],
  ["Nc1nnc(-c2cccc(Cl)c2Cl)c(N)n1", "UniProt:Q9Y5Y9", "IC50", "~50 µM"]
]}

====

TARGET_OR_TEST_SYSTEM: endogenous NaV channels of Chinese Hamster Ovary cells (Nav 1.2a) (Cricetulus griseus, UniProt A0A8C2MK62)
ASSAY_INFO: Use-dependent block, repetitive electrical stimulation at 1 Hz, CHO cells
Format: cell-based
ASSAY_CONTEXT: 1 Hz stimulation, 1st peak response; read-out: IC50 @ 1st peak
PROPERTY_NAME: IC50 (µM)

{"columns": ["CPD_SMILES", "U", "RECORDED_RESULT"],
 "data": [
  ["COC(=O)[C@@H]1[C@H]2C[C@H]3c4[nH]c5ccccc5c4CCN3C[C@@H]2CC[C@@H]1O", "µM", 26.7]
]}

====

TARGET_OR_TEST_SYSTEM: voltage dependent sodium channel (NaV1) endogenously expressed in wild type CHO cells (Cricetulus griseus)
Sequence (A0A8C2MK62 1-2006): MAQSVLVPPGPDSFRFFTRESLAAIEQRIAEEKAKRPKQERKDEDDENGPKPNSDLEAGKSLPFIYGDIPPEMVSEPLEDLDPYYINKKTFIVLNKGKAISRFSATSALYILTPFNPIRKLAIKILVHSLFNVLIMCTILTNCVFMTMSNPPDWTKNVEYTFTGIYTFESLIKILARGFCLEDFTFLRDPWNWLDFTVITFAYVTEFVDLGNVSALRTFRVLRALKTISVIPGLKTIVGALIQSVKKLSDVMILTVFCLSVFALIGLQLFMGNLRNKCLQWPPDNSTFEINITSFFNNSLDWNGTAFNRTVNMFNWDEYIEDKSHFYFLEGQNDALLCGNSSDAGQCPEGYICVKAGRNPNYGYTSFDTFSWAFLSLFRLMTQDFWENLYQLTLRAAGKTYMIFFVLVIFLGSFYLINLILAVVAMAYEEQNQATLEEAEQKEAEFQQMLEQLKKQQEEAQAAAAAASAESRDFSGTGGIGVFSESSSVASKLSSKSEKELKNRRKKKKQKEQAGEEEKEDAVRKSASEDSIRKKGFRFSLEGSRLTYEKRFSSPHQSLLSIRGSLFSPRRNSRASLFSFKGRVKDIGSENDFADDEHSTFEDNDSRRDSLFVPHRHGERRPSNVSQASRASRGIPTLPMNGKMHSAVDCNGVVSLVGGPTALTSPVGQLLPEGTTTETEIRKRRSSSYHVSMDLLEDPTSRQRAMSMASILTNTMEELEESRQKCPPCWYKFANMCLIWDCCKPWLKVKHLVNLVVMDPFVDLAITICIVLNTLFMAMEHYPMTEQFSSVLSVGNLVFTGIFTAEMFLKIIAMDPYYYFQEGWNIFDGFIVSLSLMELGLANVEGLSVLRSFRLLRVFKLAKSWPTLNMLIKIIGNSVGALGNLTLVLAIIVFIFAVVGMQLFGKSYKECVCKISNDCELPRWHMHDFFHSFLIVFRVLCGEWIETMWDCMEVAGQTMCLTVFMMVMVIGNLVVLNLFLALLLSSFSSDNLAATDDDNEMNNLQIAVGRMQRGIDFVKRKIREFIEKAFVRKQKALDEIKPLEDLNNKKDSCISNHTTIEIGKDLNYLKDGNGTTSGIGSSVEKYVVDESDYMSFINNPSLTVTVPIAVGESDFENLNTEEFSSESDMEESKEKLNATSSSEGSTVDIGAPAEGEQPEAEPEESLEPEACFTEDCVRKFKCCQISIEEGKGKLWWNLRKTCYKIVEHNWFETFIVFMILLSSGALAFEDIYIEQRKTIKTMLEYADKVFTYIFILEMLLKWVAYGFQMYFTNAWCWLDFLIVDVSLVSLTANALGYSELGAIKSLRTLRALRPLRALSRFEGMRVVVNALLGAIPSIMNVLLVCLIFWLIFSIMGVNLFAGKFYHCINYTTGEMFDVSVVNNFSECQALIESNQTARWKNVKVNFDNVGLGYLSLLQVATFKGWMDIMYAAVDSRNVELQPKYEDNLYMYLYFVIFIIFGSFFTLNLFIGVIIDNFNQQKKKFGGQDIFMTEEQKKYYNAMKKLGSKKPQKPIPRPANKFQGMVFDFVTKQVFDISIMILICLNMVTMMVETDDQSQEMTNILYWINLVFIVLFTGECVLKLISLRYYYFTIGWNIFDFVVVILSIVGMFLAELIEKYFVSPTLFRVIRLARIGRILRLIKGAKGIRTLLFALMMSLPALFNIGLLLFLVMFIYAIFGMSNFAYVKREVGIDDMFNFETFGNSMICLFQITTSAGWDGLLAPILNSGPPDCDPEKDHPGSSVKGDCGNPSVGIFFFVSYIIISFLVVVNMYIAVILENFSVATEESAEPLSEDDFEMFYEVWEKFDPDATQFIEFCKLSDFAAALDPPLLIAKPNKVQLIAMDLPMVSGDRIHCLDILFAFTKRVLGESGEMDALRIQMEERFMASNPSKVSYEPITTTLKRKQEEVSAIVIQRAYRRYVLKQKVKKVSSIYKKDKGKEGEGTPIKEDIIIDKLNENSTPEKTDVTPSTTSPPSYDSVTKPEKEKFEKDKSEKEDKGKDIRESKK
ASSAY_CONTEXT: read-out: EC50 (Hill function fit to dose response)
pEC50: −log10 of the molar value.

{"columns": ["CPD_SMILES", "pEC50"],
 "data": [
  ["NC1=N[C@H](O)[C@H]2[C@H]3O[C@]4(O)O[C@@H]([C@@H](O)[C@@]2(N1)[C@@H]4O)[C@]3(O)CO", 8.05]
]}
